# Test system: NCI-H322M lung
# Measurement description: NCI-60 one-dose screen, 48 h (100 = growth as untreated, 0 = no growth, -100 = all killed)
# Condition: 10 µM unless noted
Compounds without any hit were thinned out: in the full panel of roughly 83,000, 20% have a hit. Activity calls are given as the source filed them. How the source made its calls: active means growth percent below 10; inactive means the rest.
Observable: growth

Compound	Value reported
COc1ccc2c(c1)c(-c1nnc(N)nc1-c1cn(C)c3ccccc13)cn2C	90.4% (inactive)
Clc1ccccc1/C=C/c1nn2c(-c3ccncc3)nnc2s1	100% (inactive)
CS(=O)c1nccc(-c2c(-c3ccc(F)c(OCCc4ccccc4)c3)nc3sccn23)n1 (stereo unspecified)	76.7% (inactive)
Cc1ccc(NC(=O)c2ccc(CN3CCN(C)CC3)c(I)c2)cc1Oc1ccc(-c2[nH]nc3ncnc(N)c23)cc1	89.8% (inactive)
CCN1C(=O)N(CC)C2SC(N/N=C/c3ccccc3F)=NC21 (stereo unspecified)	53.3% (inactive)

Attention now turns to another entry.
Kindly note the recorded growth for CC[C@@](C)(NC(=O)C(C)(C)NC(=O)[C@@H](NC(=O)[C@@H]1CCCN1C(=O)C(C)(C)NC(=O)[C@H](CC(C)C)NC(=O)CNC(=O)C(C)(C)NC(=O)[C@@H](NC(=O)C(C)(C)NC(=O)[C@H](CCC(N)=O)NC(=O)[C@H](C)NC(=O)C(C)(C)NC(=O)[C@H](C)NC(=O)C(C)(C)NC(=O)[C@@H]1CCCN1C(=O)C(C)(C)NC(C)=O)C(C)C)C(C)C)C(=O)N[C@@H](CCC(N)=O)C(=O)N[C@@H](CCC(N)=O)C(=O)N[C@H](CO)Cc1ccccc1 , which is 58.4% [4.25 µM] (inactive)
